tested on: primary neurons; experiment: Protection of primary neuron culture against Aβ42 insult (trypan blue count); type: cell-based; conditions: Primary neuron, read-out: IC50 protection from Aβ42 insult
Measurement Kind: pIC50
// field semantics: pIC50 = negative decimal log of concentration (mol/L)

So what's the measured pIC50 for this one? "Nc1ncnc2c1ncn2[C@@H]1O[C@H](COP(=O)(O)CP(=O)(O)OP(O)(O)=S)[C@@H](O)[C@H]1O"
6.70

---

Target: human NPP1 (Homo sapiens, UniProt P22413)
Construct: made in house; host or cells: COS-7 cells (transfected; protein extract / cell lysate)
Sequence (P22413 1-925): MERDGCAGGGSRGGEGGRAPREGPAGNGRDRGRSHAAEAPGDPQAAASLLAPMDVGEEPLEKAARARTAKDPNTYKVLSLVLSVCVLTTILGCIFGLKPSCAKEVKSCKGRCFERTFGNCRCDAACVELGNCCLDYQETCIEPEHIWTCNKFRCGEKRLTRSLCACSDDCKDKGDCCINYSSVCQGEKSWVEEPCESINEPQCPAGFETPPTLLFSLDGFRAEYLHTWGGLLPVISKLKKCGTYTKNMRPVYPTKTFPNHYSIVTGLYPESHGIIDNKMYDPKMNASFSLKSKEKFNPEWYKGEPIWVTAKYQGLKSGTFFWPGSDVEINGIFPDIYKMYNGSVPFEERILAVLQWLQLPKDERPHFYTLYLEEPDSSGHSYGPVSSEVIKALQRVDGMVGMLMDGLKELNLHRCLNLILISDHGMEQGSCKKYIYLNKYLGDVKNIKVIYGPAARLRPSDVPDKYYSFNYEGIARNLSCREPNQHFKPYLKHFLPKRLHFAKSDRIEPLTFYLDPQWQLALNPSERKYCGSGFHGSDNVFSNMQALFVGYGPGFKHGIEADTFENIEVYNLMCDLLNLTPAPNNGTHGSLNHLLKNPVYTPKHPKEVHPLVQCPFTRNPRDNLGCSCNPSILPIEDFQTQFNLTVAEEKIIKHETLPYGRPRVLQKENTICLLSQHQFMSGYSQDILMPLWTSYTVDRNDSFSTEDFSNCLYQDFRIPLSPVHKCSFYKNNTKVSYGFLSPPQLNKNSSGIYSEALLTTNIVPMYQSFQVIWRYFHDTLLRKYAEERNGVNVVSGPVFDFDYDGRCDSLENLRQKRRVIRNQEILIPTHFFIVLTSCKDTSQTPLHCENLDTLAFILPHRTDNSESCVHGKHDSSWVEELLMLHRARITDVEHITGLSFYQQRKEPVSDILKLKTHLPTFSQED
Assay: Inhibition of NPP1 activity
Type: biochemical
Conditions: NPP1, text; read-out: IC50
Measurement Kind: pIC50
// field semantics: pIC50 = negative decimal log of concentration (mol/L)

So what's the measured pIC50 for this one? Nc1ncnc2c1ncn2[C@@H]1O[C@H](COP(O)(=S)OP(=O)(O)C(Cl)(Cl)P(=O)(O)O)[C@@H](O)[C@H]1O (single isomer, unassigned; isomer a) [APPCCl2P-α-S (isomer A)]
6.22

---

target: human P2Y11-R (Homo sapiens); construct: expressed in transfected cells; host or cells: 1321N1 astrocytoma cells; test: [Ca^2+]i response of 1321N1 astrocytoma cells expressing P2Y11-R GFP; type: cell-based; settings: agonist; read-out: EC50 at the P2Y11 receptor
Sequence (Q96G91 whole entry): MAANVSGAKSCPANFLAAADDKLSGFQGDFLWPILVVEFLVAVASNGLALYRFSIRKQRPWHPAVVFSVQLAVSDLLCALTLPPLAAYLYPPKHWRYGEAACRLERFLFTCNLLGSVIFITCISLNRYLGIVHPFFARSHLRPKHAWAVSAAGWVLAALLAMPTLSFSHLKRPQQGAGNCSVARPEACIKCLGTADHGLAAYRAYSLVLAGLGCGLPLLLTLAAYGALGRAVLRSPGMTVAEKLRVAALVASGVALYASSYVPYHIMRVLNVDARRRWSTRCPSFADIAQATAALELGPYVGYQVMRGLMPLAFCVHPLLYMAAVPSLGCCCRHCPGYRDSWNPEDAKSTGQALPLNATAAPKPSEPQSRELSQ
Measurement Kind: EC50 (nM)
Write down the numeric answer in nM and omit the unit.

Form: Entry = "Nc1ncnc2c1ncn2[C@@H]1O[C@H](COP(=O)(O)CP(=O)(O)OP(O)(O)=S)[C@@H](O)[C@H]1O" | System = human P2Y11-R (Homo sapiens) | EC50 = ____
1000

---

Target: human NPP1 (Homo sapiens, UniProt P22413)
Construct: made in house; host or cells: COS-7 cells (transfected; protein extract / cell lysate)
Sequence (P22413 1-925): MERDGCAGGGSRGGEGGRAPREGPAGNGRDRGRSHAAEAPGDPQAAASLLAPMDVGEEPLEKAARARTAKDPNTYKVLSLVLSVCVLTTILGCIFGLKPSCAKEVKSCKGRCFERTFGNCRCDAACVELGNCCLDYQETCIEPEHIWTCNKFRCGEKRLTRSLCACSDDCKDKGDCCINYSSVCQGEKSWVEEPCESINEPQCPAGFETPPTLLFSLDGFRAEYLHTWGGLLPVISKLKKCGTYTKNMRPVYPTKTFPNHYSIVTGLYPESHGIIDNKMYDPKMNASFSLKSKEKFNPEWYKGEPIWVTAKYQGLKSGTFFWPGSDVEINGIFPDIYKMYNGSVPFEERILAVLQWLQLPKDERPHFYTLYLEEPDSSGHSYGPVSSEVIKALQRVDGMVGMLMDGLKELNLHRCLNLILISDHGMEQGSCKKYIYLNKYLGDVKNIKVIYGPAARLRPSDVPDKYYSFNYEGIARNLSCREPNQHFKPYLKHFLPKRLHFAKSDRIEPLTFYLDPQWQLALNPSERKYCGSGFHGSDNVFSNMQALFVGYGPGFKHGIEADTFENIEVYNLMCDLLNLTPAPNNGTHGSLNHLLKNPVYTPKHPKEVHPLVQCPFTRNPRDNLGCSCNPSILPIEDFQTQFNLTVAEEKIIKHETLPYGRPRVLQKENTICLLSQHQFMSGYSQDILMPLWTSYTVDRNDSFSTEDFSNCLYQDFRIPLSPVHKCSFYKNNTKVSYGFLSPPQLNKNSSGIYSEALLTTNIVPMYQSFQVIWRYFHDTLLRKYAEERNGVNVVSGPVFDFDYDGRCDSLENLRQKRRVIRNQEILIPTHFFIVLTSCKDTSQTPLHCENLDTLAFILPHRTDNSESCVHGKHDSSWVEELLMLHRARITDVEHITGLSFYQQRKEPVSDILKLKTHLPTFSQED
Test: Inhibition of NPP1 activity
Assay type: biochemical
Settings: pNP-TMP 5·10^−5 M; listed as APPCP-α-S A
Measurement Kind: pIC50
// field semantics: pIC50 = negative decimal log of concentration (mol/L)

So what's the measured pIC50 for this one? Nc1ncnc2c1ncn2[C@@H]1O[C@H](COP(O)(=S)OP(=O)(O)CP(=O)(O)O)[C@@H](O)[C@H]1O (single isomer, unassigned; isomer a) [APPCP-α-S (isomer A)]
4.79

---

tested on: cortical neurons; experiment: Neuroprotection of cultured cortical neurons exposed to FeSO4 or FeSO4/H2O2; type: cell-based; details: primary cortical neuronal cells; read-out: IC50 protection from damage caused by FeSO4
Measurement Kind: pIC50
// field semantics: pIC50 = negative decimal log of concentration (mol/L)

Form: Entry = Nc1ncnc2c1ncn2[C@@H]1O[C@H](COP(=O)(O)OP(=O)(O)OP(O)(O)=S)[C@@H](O)[C@H]1O [ATP-γ-S, Adenosine 5′-[γ-thio]-triphosphate] | System = cortical neurons | pIC50 = ____
8.00

---

molecular target: human NTPDase8 (Homo sapiens); construct: made in house; host or cells: COS-7 cells (transfected; protein extract); test: Inhibition of NTPDase8 activity; assay type: biochemical; settings: analogue and ATP 100 μM
Sequence (Q5MY95 whole entry): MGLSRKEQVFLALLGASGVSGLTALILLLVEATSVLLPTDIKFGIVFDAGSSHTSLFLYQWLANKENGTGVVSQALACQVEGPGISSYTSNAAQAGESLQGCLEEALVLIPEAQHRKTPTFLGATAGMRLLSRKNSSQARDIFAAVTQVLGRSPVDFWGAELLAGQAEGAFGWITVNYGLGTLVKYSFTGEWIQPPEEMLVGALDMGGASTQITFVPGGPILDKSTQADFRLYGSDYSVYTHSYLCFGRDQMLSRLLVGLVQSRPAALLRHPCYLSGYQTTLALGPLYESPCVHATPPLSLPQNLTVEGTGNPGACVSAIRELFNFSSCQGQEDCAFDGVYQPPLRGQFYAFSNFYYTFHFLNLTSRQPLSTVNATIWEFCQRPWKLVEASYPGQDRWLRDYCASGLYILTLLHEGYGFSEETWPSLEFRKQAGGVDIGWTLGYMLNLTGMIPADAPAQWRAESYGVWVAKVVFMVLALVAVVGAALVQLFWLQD
Measurement Kind: inhibition of the hydrolysis of ATP by NTPDase8

compound="Nc1ncnc2c1ncn2[C@@H]1O[C@H](COP(O)(=S)OP(=O)(O)CP(=O)(O)O)[C@@H](O)[C@H]1O (single isomer, unassigned; isomer b) [APPCP-α-S (isomer B)]" test_result="did not interfere"
compound="Nc1ncnc2c1ncn2[C@@H]1O[C@H](COP(O)(=S)OP(=O)(O)CP(=O)(O)O)[C@@H](O)[C@H]1O (single isomer, unassigned; isomer a) [APPCP-α-S (isomer A)]" test_result="did not interfere"
compound="Nc1ncnc2c1ncn2[C@@H]1O[C@H](COP(O)(=S)OP(=O)(O)C(Cl)(Cl)P(=O)(O)O)[C@@H](O)[C@H]1O (single isomer, unassigned; isomer a) [APPCCl2P-α-S (isomer A)]" test_result="did not interfere"
compound="Nc1ncnc2c1ncn2[C@@H]1O[C@H](COP(O)(=S)OP(=O)(O)C(Cl)(Cl)P(=O)(O)O)[C@@H](O)[C@H]1O (single isomer, unassigned; isomer b) [APPCCl2P-α-S (isomer B)]" test_result="did not interfere"

---

molecular target: human NPP1 (Homo sapiens); construct: made in house; host or cells: COS-7 cells (transfected; protein extract / cell lysate); test: Inhibition of NPP1 activity; format: biochemical; settings: pNP-TMP as substrate, Dixon plot; read-out: Ki
Measurement Kind: Ki

So what's the measured Ki for this one? Nc1ncnc2c1ncn2[C@@H]1O[C@H](COP(O)(=S)OP(=O)(O)C(Cl)(Cl)P(=O)(O)O)[C@@H](O)[C@H]1O (single isomer, unassigned; isomer b) [APPCCl2P-α-S (isomer B)]
15.2 µM

---

target: human NPP1 (Homo sapiens); construct: made in house; host or cells: COS-7 cells (transfected; protein extract / cell lysate); test: Inhibition of NPP1 activity; assay type: biochemical; settings: dissociation constant for EIS complex, Cornish-Bowden plot; listed as APPCP-α-S A; read-out: Ki′
Measurement Kind: Ki

So what's the measured Ki for this one? Nc1ncnc2c1ncn2[C@@H]1O[C@H](COP(O)(=S)OP(=O)(O)CP(=O)(O)O)[C@@H](O)[C@H]1O (single isomer, unassigned; isomer a) [APPCP-α-S (isomer A)]
4.5 µM
